experiment: Serum morphine and metabolites by UPLC-MS/MS after s.c. morphine; conditions: rat, sc, 4 mg/kg
MEASUREMENT_LABEL: concentration at 4.5 h

Qu. So what does the record say about concentration at 4.5 h for CN1CC[C@]23c4c5ccc(O)c4O[C@H]2[C@@H](O[C@@H]2O[C@H](C(=O)O)[C@@H](O)[C@H](O)[C@H]2O)C=C[C@H]3[C@H]1C5 [Morphine-6-glucuronide, morphine-6-glucuronide] ?
Ans. < 1 ng/mL
